Ref: ChEMBL document CHEMBL2218924

- subject-of-test: Dual specificity tyrosine-phosphorylation-regulated kinase 2 (Homo sapiens)
- assay-context: at 1 µM
Hi there, I'd appreciate the recorded residual activity for every entry that follows.
Field: value (include unit after the number)

Solved cases below.
C[C@@H](N)[C@H]1CC[C@H](C(=O)Nc2ccncc2)CC1    101%
Cc1ccc(S(=O)(=O)/C=C/C#N)cc1    96%
Cc1cncc2cccc(S(=O)(=O)N3CCCN(C(=O)CN)C[C@H]3C)c12    91%
COc1ccc(CNc2nc(N(CCO)CCO)nc3c2ncn3C(C)C)cc1    87%
CNc1cc2c(Nc3cccc(Br)c3)ncnc2cn1    90%

// each listed molecule needs a value for residual activity
1. Cc1cc2ncc(-c3ccccc3)nc2cc1C
2. c1ccc(-c2n[nH]c3c2oc2ccccc23)cc1
3. CO[C@H]1[C@@H](OC)C[C@H](C)[C@@H](OC)C2=CC(=O)C=C(NC(=O)/C(C)=C/C=C/[C@H](OC)[C@@H](OC(N)=O)/C(C)=C/[C@@H]1C)C2=O
4. O=C(Nc1cccc(Nc2cc(Nc3cccc(C(F)(F)F)c3)ncn2)c1)C1CC1
5. O=C1NC(=O)/C(=C/c2ccc3c(c2)OC(F)(F)O3)S1

Response:
["85%", "83%", "95%", "97%", "86%"]
